These measurements were taken from patent US20100158926A1.

Record form. Attribute: EC50 (ng/ml) n2, inhibition of Heregulin-induced ErbB2 phosphorylation in MCF7 cells. Fill in for each entry.
TGT: human ErbB2, full length, on cells (B300.19/hErbB2 clone #44; MCF7; BT474; SKBR3) (human)

# batch size: 2; output EC50 (ng/ml) n2, inhibition of Heregulin-induced ErbB2 phosphorylation in MCF7 cells per entry
1. monoclonal antibody 1.20 (antibody, V domains shown) VH: QLQLQESGPGLVKPSETLSLTCTVSGGSISSSNYYWGWIRQPPGKGLEWIGTIYYTGSTYYNPSLKSRVTISVDTSKNQFSLKLSSVTAADTAVYYCARHHWVFDYWGQGTLVTVSS VL: DIQMTQSPSSVSASVGDRVTITCRASQGISSWLAWYQQKPGKAPKLLIYAASSLQSGVPSRFSGSGSGTDFTLTISSLQPEDFATYYCQRTNSFPRTFGQGTKVEIK
2. monoclonal antibody 1.100.1 (antibody, V domains shown) VH: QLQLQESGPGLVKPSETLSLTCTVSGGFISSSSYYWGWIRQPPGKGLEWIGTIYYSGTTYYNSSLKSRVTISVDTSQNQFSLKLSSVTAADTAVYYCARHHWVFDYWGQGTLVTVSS VL: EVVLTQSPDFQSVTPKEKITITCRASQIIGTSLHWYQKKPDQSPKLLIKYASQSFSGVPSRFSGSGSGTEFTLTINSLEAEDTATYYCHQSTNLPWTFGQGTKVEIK

1: 17.4 ng/mL; 2: 33.7 ng/mL

Field request: EC50 (ng/ml) n2, inhibition of Heregulin-induced ErbB2 phosphorylation in MCF7 cells | item: monoclonal antibody 1.43 (antibody, V domains shown) VH: QVQLVESGGGLVKPGGSLRLSCAASGFTFSDYYMNWIRQAPGKGLEWVSYISSSGSIIYYADSVKGRFTISRDNAKNSLYLQMNSLRAEDTAVYYCAREGRIAARGMDVWGQGTTVTVSS VL: DIQMTQSPSSLSASVGDRVSITCRPSQSFSRYINWYQQKPGKAPKLLIHAASSLVGGVPSRFSGSGSGTDFTLTISSLQPEDFATYYCQQTYSNPPITFGQGTRLEMK > 10000 ng/mL
